- Test system: T. cruzi-infected H9C2 cardiomyocytes, high-content imaging
- TEST METHOD NOTES: intracellular T. cruzi amastigote inhibition, imaging, H9C2 host cardiomyocytes, host toxicity (AID 1159565);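 also: infected cells incubated 72 h after plating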
- ASSAY SETUP: measured here: amastigotes per cell
READOUT KIND: pIC50
The value called pIC50 is obtained by taking minus log10 of the concentration in mol/L.

Sample Clc1ccc(CN2CCN(C3=NCCN3)CC2)cc1Cl — what was its pIC50?
6.00

---
Sample CC(=O)NCCNc1cc(-c2ccnc(Nc3cccc(Cl)c3)n2)ccn1 — what was its pIC50?
6.80

How about COc1ccc(S(=O)(=O)NC(C)C)cc1Nc1ncc(-c2cccc(F)c2)cn1 ?
6.49

How about COc1ccc([N+](=O)[O-])cc1NC(=O)Nc1cccc(Cl)c1 ?
6.40

====

- System: T. cruzi-infected H9C2 cardiomyocytes, high-content imaging
- TEST METHOD NOTES: intracellular T. cruzi amastigote inhibition, imaging, H9C2 host cardiomyocytes, host toxicity (AID 1159565);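 also: infected cells incubated 72 h after plating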
- ASSAY SETUP: measured here: H9C2 host cell toxicity
# key: entry, value: IC50

Param readout = IC50; param system = T. cruzi-infected H9C2 cardiomyocytes, high-content imaging; param query = Cc1cc(C)n(-c2nc(NC(C)C)nc(NC(C)(C)C)n2)n1 ; response: value
0.2 µM

How about Cc1ccc2nc(N(Cc3cccnc3)C(=O)CCc3ccccc3)sc2c1 ?
> 50 µM

How about COc1ccc(CN(C)Cc2ccncc2)cc1-c1ccc(S(=O)(=O)NC2CCC2)s1 ?
10 µM

How about O=C(Nc1cccc(Cl)c1)N1CCCCC1c1cccnc1 (configuration not stated) ?
> 50 µM

How about Cc1ccc(S(=O)(=O)Nc2ccc(CN3CCN(C(=O)c4cccc(C)c4)CC3)cc2)cc1 ?
> 50 µM

How about O=S(=O)(NCC(c1cccnc1)N1CCN(c2ccccc2F)CC1)c1ccc(F)cc1 (configuration not stated) ?
> 50 µM

How about CCc1cccc(CC)c1-n1c(SCC(=O)NC(=O)NCc2ccco2)nnc1-c1cccnc1 ?
> 50 µM

How about N#Cc1ccc(C(=O)Nc2cccc(-c3cccc(CN4CCC(O)CC4)c3)c2)cc1 ?
32 µM

How about O=C(NCc1ccc(-n2cccc2)cc1)c1nc(Cn2ccc([N+](=O)[O-])n2)no1 ?
> 50 µM

How about O=S1N=C(NCCCN(Cc2ccc(F)cc2)c2ccccn2)C(NCc2ccncc2)=N1 (configuration not stated) ?
> 50 µM

How about Cc1ccc(NC(=O)c2ccnc(N3CCCC3)c2)cc1-c1ccsc1C(N)=O ?
> 50 µM

How about Cc1ccc(C)c(-n2nnnc2Sc2nc([N+](=O)[O-])nn2C)c1 ?
> 50 µM

How about CC(=O)Nc1ccc(Nc2nccc(-c3cnn4ncccc34)n2)cc1C(F)(F)F ?
0.063 µM

How about Cc1ccc(NC(=O)c2ccc(Cl)c(NC(=O)c3ccc([N+](=O)[O-])cc3)c2)cc1 ?
> 50 µM

====

- Test system: T. cruzi-infected H9C2 cardiomyocytes, high-content imaging
- TEST METHOD NOTES: intracellular T. cruzi amastigote inhibition, imaging, H9C2 host cardiomyocytes, host toxicity (AID 1159565);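 also: infected cells incubated 72 h after plating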
- ASSAY SETUP: measured here: amastigotes per cell
pIC50: −log10 of the molar value.
Kind request: treat 6 as inclusive, so pIC50 at 6 or higher is class 1, anything lower is class 0.

Identify whether the reported pIC50 of the following compound is 6 or greater: COc1ccc(C(=O)Nc2ccc(NC(=O)CO)cc2)cc1
class 0

How about C=CCOCC1Cn2nc([N+](=O)[O-])nc2O1 (stereo unspecified) ?
class 1

How about O=C1CN(Cc2ccco2)C2CS(=O)(=O)CC2N1c1ccc(Cl)cc1 (stereo unspecified) ?
class 0

How about COc1ccc(OC)c(NC(=O)c2ccc([N+](=O)[O-])o2)c1 ?
class 0

How about O=C(Nc1cccc(F)c1)N1CCC(Oc2cccc(-c3cccnc3)c2)CC1 ?
class 1

---
Identify whether the reported pIC50 of the following compound is 6 or greater: CN(C(=O)Nc1ccc2c(c1)CCN(C1CCC1)CC2)c1ccc(C#N)cc1
class 0

How about Cc1cc(Nc2ccc(C#N)c(Cl)c2C)n[nH]1 ?
class 0

How about N#Cc1ccc(S(=O)(=O)N2CCN(Cc3cccc(-c4ccncc4)c3)CC2)cc1 ?
class 1

How about CCn1c(NC(=O)Cc2ccc(F)cc2)nc2ccccc21 ?
class 0

How about CCN(Cc1cccs1)C(=O)CSc1nnc(-c2ccc3c(c2)OCO3)o1 ?
class 0

How about c1cncc(CN(Cc2ccco2)Cc2cn[nH]c2-c2cccs2)c1 ?
class 1

How about CCN(CC)c1ncc(C(=O)c2ccc([N+](=O)[O-])o2)s1 ?
class 0

How about O=C(Nc1nc(-c2ccccn2)cs1)C1CCc2ccccc2C1 (stereo unspecified) ?
class 0

====

- System: T. cruzi-infected H9C2 cardiomyocytes, high-content imaging
- TEST METHOD NOTES: intracellular T. cruzi amastigote inhibition, imaging, H9C2 host cardiomyocytes, host toxicity (AID 1159565);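 also: infected cells incubated 72 h after plating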
- ASSAY SETUP: measured here: H9C2 host cell toxicity
pIC50: −log10 of the molar value.
READOUT KIND: pIC50

Sample CN(C)c1ccc(N)cc1CN(CC1CCCO1)S(C)(=O)=O (centres undefined) — what was its pIC50?
< 4.30

How about CN(Cc1cccnc1)Cc1ccc(N2CCN(C(=O)C3(c4ccc(Cl)cc4)CC3)CC2)nc1 ?
< 4.30

Next molecule, pIC50 to be filled in.
Sample CN(Cc1ccc(F)cc1)c1ccc(OCC(=O)N2CCCCC2c2cccnc2)nn1 (centres undefined) — what was its pIC50?
< 4.30

====

- Tested on: T. cruzi-infected H9C2 cardiomyocytes, high-content imaging
- TEST METHOD NOTES: intracellular T. cruzi amastigote inhibition, imaging, H9C2 host cardiomyocytes, host toxicity (AID 1159565);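 also: infected cells incubated 72 h after plating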
- ASSAY SETUP: measured here: H9C2 host cell toxicity
READOUT KIND: IC50 (µM)
Unit µM implied. Number only.

Check out these entries, answers already filled in.
Sample O=C(Nc1nc2cc(Cl)ccc2o1)c1cccc(Cl)c1 — what was its IC50?
2.5

How about Oc1c(-c2n[nH]c(CCc3ccccc3)n2)ncc2cccnc12 ?
16

---
Sample COc1ccc(CNc2cc(C3CC3)nc(-c3nccn3C)n2)cc1 — what was its IC50?
1

How about CS(=O)(=O)c1ccc(CC(=O)Nc2nc(-c3ccc(Cl)s3)cs2)cc1 ?
16

How about CN1CCN(c2nc(-c3ccc(Cl)cc3)c3c(N)n(C)nc3n2)CC1 ?
25

How about CNS(=O)(=O)c1ccccc1Nc1nc(Nc2cc(C)nn2C)ncc1Cl ?
0.25

How about COc1cc(Nc2nccc(Nc3onc(C)c3C)n2)cc(S(=O)(=O)C2CCOCC2)c1 ?
10

How about CC(C)(C)C(=O)Nc1cc(C2CC2)nn1-c1nc2c(c(=O)[nH]1)CCCC2 ?
2

How about Cc1nc2c(-c3ncn[nH]3)cc(NC(=O)Cc3ccccc3)cn2c1C ?
6.3

How about CCc1c(C)nc(-n2nc(C)cc2NC(=O)COc2ccccc2F)[nH]c1=O ?
2.5

How about COc1cccc(NS(=O)(=O)c2ccc3[nH]cc(C(=O)NCCC(C)C)c(=O)c3c2)c1 ?
13

How about N#Cc1nc(C=Cc2ccccc2)oc1NCc1cccnc1 ?
16

How about O=C(Cc1ccccc1)Nc1[nH]nc2sc(C(=O)NC3CCCC3)cc12 ?
1.3

How about O=S(=O)(c1cccc(CSc2nnc(-c3ccc4c(c3)OCO4)o2)c1)N1CCOCC1 ?
25

How about NC(=O)c1cc(F)ccc1Nc1nc(NC2CCC(O)CC2)ncc1Cl (stereo not drawn) ?
1.6

How about CCCCc1cc(Nc2cc(C3CCC3)[nH]n2)nc(N2CCC2C(N)=O)n1 (stereo not drawn) ?
0.79

How about Cc1cc(NC(=O)C2CC2)ccc1OC1CCN(Cc2ccco2)CC1 ?
40

How about Cc1cccc(NS(=O)(=O)c2cnc3sc(C)cn3c2=O)c1 ?
6.3

====

# key: entry, value: pIC50
- Test system: T. cruzi-infected H9C2 cardiomyocytes, high-content imaging
- TEST METHOD NOTES: intracellular T. cruzi amastigote inhibition, imaging, H9C2 host cardiomyocytes, host toxicity (AID 1159565);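 also: infected cells incubated 72 h after plating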
- ASSAY SETUP: measured here: H9C2 host cell toxicity
The value called pIC50 is obtained by taking minus log10 of the concentration in mol/L.

Sample O=C(Nc1ccc(S(=O)(=O)N2CCCC2)cc1)c1ccc([N+](=O)[O-])s1 — what was its pIC50?
5.80

How about O=C(Nc1nc(-c2ccccn2)cs1)N1C[C@H]2C[C@@]2(c2ccccc2)C1 ?
6.10

How about COc1cc(-c2noc(CC#N)n2)ccc1OC(F)F ?
4.49

How about CCCn1c(NC(=O)CCn2cc(Br)cn2)nc2ccccc21 ?
4.60

How about Cn1cc(CN2CCN(c3ccc4c(c3)CCN(C(=O)[C@H]3C[C@@H]3c3ccccc3)CC4)CC2)cn1 ?
4.49
